- System: Candida parapsilosis
- assay.procedure: Antifungal activity in vitro, resazurin growth inhibition: Candida parapsilosis (B66126)
- Assay type: cell-based
result.type: Inf. D: Candida parapsilosis B66126, pIC50

• CC(F)(F)c1ccc(C2=NCc3c(Cl)cc(Cl)cc3-n3cccc32)cn1 = 5.44
• CCc1ccc(C2NCc3c(Cl)cccc3-n3cccc32)cn1.Cl (racemic) = <4.19
• Cc1cccc2oc(C3=NCc4c(Cl)cccc4-n4cccc43)cc12 = <4.49
• Cc1ccc2oc(C3=NCc4ccc(Cl)cc4-n4cccc43)cc2c1 = <4.19
• Cl.Clc1ccc2oc(C3NCc4c(Cl)cccc4-n4cccc43)cc2c1 (racemic) = <4.19

QUERY: What does the record list as Inf. D: Candida parapsilosis B66126, pIC50 for COc1cccc2cc(C3NCc4c(Cl)cc(Cl)cc4-n4cccc43)oc12.Cl (racemic) ?
RESULT: <4.19

QUERY: What does the record list as Inf. D: Candida parapsilosis B66126, pIC50 for "Fc1cc(F)c2c(c1)-n1cccc1C(c1ccc3sccc3c1)=NC2" ?
RESULT: 6.03

QUERY: What does the record list as Inf. D: Candida parapsilosis B66126, pIC50 for "Clc1cccc2c1-n1cccc1C(c1ccc3scc(Cl)c3c1)=NC2" ?
RESULT: <4.19

QUERY: What does the record list as Inf. D: Candida parapsilosis B66126, pIC50 for "Fc1cc(F)c2c(c1)-n1cccc1C(c1cnc(Cl)c(Cl)c1)=NC2" ?
RESULT: 4.19

----------
Inf. H: Scedosporium apiospermum IHEM3817, pIC50 reference
- System: Scedosporium apiospermum
- assay.procedure: Antifungal activity in vitro, resazurin growth inhibition: Scedosporium apiospermum (IHEM3817)
- Type: cell-based

# example entries with known answers
- Clc1cccc2c1CN=C(c1ccc3scnc3c1)c1cccn1-2 [Compound 188]: 6.29
- Clc1ccc2oc(C3=NCc4c(Cl)cccc4-n4cccc43)cc2c1 [Compound 121]: 5.97
- Clc1ccc(C2=NCc3c(Cl)cccc3-n3cccc32)cn1 [Compound 77]: 4.88
- Fc1ccc2oc(C3NCc4c(Cl)cccc4-n4cccc43)cc2c1 (racemic) [Compound 47]: 6.03
- Clc1cccc2c1CN=C(c1ccc3ccoc3c1)c1cccn1-2 [Compound 150]: <4.19

QUERY: Value wanted: Inf. H: Scedosporium apiospermum IHEM3817, pIC50 (Scedosporium apiospermum) of entry Clc1cccc2c1CN=C(c1cnc3occc3c1)c1cccn1-2 [Compound 161]
RESULT: 6.47

QUERY: Value wanted: Inf. H: Scedosporium apiospermum IHEM3817, pIC50 (Scedosporium apiospermum) of entry Cc1ccc2oc(C3=NCc4c(Cl)cccc4-n4cccc43)cc2c1 [Compound 134]
RESULT: <4.19

QUERY: Value wanted: Inf. H: Scedosporium apiospermum IHEM3817, pIC50 (Scedosporium apiospermum) of entry Fc1ccc2oc(C3=NCc4ccc(Cl)cc4-n4cccc43)cc2c1 [Compound 124]
RESULT: <4.19

QUERY: Value wanted: Inf. H: Scedosporium apiospermum IHEM3817, pIC50 (Scedosporium apiospermum) of entry Clc1cc(Cl)c2c(c1)-n1cccc1C(c1cc3ccccc3s1)=NC2 [Compound 168]
RESULT: <4.19

----------
Inf. A: Sporothrix schenkii B62482, pIC50 reference
- System: Sporothrix schenkii
- assay.procedure: Antifungal activity in vitro, resazurin growth inhibition: Sporothrix schenkii (B62482)
- Format: cell-based

# example entries with known answers
• Cc1ccc2oc(C3=NCc4ccc(Cl)cc4-n4cccc43)cc2c1 [Compound 135] = <4.19
• Cl.Clc1cc(Cl)c2c(c1)-n1cccc1C(c1cc3ccccc3o1)NC2 (racemic) [Compound 31] = <4.19
• Clc1cccc2c1CN=C(c1ccc3nsnc3c1)c1cccn1-2 [Compound 194] = <4.19
• Cc1cccc2c1CNC(c1cc3cc(Cl)ccc3o1)c1cccn1-2.Cl (racemic) [Compound 34] = <4.19
• Cc1ccc(Cl)c2c1-n1cccc1C(c1cnc(C(F)(F)F)nc1)NC2.Cl (racemic) [Compound 27] = <4.90

QUERY: What does the record list as Inf. A: Sporothrix schenkii B62482, pIC50 for CC(C)n1ccc(C2=NCc3c(Cl)cccc3-n3cccc32)cc1=O [Compound 70] ?
RESULT: 5.17

QUERY: What does the record list as Inf. A: Sporothrix schenkii B62482, pIC50 for Clc1cccc2c1CN=C(c1ccc3ccsc3c1)c1cccn1-2 [Compound 172] ?
RESULT: 5.59

Each recorded value in this set is attributed to patent US9493468B2.
